Source: the supplement of paper PMC9732359

# protein stability index annotations
Assay method text: protein stability index of a GFP-peptide fusion (yeast GPS) (PSI 1-4); higher = more stable; sorted into four equal gates, so the index is relative within each strain
Experimental conditions: doa10∆
Outcome measure: protein stability index

[[record]]
entry_sequence = "VDEPMTSAVELGAIEQI [YJL039C/NUP192]"
outcome_measure = "protein stability index"
readout_value = 3.41

[[record]]
entry_sequence = "KNPKFSNAFYSVLRDTL [SMC4]"
outcome_measure = "protein stability index"
readout_value = 2.1

[[record]]
entry_sequence = "QLLNGQKIVVVRAEELN [RPL16A]"
outcome_measure = "protein stability index"
readout_value = 1.28

[[record]]
entry_sequence = "TVRVDKASTYGELVLDI [SNF12]"
outcome_measure = "protein stability index"
readout_value = 2.38

[[record]]
entry_sequence = "KKQKLIEEQDKKVQALQ [ITC1]"
outcome_measure = "protein stability index"
readout_value = 3.06

[[record]]
entry_sequence = "IRQDVNLGRAVFWEIQS [PRP8]"
outcome_measure = "protein stability index"
readout_value = 3.04

[[record]]
entry_sequence = "HRVAENWRKQKGIDSVV [RPL32]"
outcome_measure = "protein stability index"
readout_value = 2.55

[[record]]
entry_sequence = "FVKKTSEEIDSLNEDVE [SMC2]"
outcome_measure = "protein stability index"
readout_value = 2.97

[[record]]
entry_sequence = "GRMDMTRLYDYEIRDID [SSN2]"
outcome_measure = "protein stability index"
readout_value = 3.29

[[record]]
entry_sequence = "KDMLYSGITGECLQAYI [RET1]"
outcome_measure = "protein stability index"
readout_value = 2.65

[[record]]
entry_sequence = "EIGGSDLKESMVKGLLK [ECM29]"
outcome_measure = "protein stability index"
readout_value = 2.63

[[record]]
entry_sequence = "IVNVNFMKSVIRSREAF [DIS3]"
outcome_measure = "protein stability index"
readout_value = 2.75

[[record]]
entry_sequence = "LPLPPSVEWMKVSPSMC [SIN4]"
outcome_measure = "protein stability index"
readout_value = 1.75

[[record]]
entry_sequence = "VSKEGLYQLVDIRDSSC [YMR129W/POM152]"
outcome_measure = "protein stability index"
readout_value = 2.83

[[record]]
entry_sequence = "TELKKITDKTIKAFMDS [IRR1]"
outcome_measure = "protein stability index"
readout_value = 2.99

[[record]]
entry_sequence = "LIQKLQNSANNNSDDED [IRR1]"
outcome_measure = "protein stability index"
readout_value = 2.98

[[record]]
entry_sequence = "DHLKLVSLFSNLRHERN [YIL149C/MLP2]"
outcome_measure = "protein stability index"
readout_value = 2.41

[[record]]
entry_sequence = "QEASQVTFIFGELKRGN [MED11]"
outcome_measure = "protein stability index"
readout_value = 2.07

[[record]]
entry_sequence = "KEKLIGWYHSGPKLRAS [RPN8]"
outcome_measure = "protein stability index"
readout_value = 2.16

[[record]]
entry_sequence = "MGEAQTGANFDDVERGV [REC8]"
outcome_measure = "protein stability index"
readout_value = 3.37

[[record]]
entry_sequence = "PTGKEEGDGAKAAISFG [YJL041W/NSP1]"
outcome_measure = "protein stability index"
readout_value = 3.37

[[record]]
entry_sequence = "VANSPNKRLDVIDGKLP [YDL088C/ASM4]"
outcome_measure = "protein stability index"
readout_value = 3.03

[[record]]
entry_sequence = "PSPKKVAIDQDKITLHD [SIR4]"
outcome_measure = "protein stability index"
readout_value = 2.36

[[record]]
entry_sequence = "AIACYSGYNQEDSMIMN [RPB2]"
outcome_measure = "protein stability index"
readout_value = 2.65

[[record]]
entry_sequence = "KSKFNKSNRSYSIALSN [GAL11]"
outcome_measure = "protein stability index"
readout_value = 2.85

[[record]]
entry_sequence = "DKGAVGPNNFIWPAEDA [MED4]"
outcome_measure = "protein stability index"
readout_value = 3.51

[[record]]
entry_sequence = "KRDAKAAGSYYVEAQHK [RPL7A]"
outcome_measure = "protein stability index"
readout_value = 3.21

[[record]]
entry_sequence = "DLCSSVLSQFERSYPSE [ROX3]"
outcome_measure = "protein stability index"
readout_value = 2.58

[[record]]
entry_sequence = "LIIIAANTPVLRKSELE [RPL30]"
outcome_measure = "protein stability index"
readout_value = 2.2

[[record]]
entry_sequence = "PSTNAQNVNVPSAFNFT [YOR098C/NUP1]"
outcome_measure = "protein stability index"
readout_value = 2.6

